# ASSAY_SYSTEM: human GPR119 (hGPR119) (Homo sapiens)
# ASSAY_PROTOCOL: cAMP accumulation assay (Cisbio cAMP Gs dynamic HTRF kit) in CHO-K1 cells stably expressing human GPR119
# EXPERIMENTAL_PARAMETERS: 60 minutes at 37° C., 4-parameter fit
MEASURED_ENDPOINT: EC50

Before answering, review these 5 worked examples.
COMPOUND: O=C(CCCCS(=O)(=O)O)N1CCN(C(=O)Cc2ccc(OCCCC3CCN(c4ncc(Cl)cn4)CC3)cc2F)CC1
MEASURED_ENDPOINT: EC50
RECORDED_VALUE: ≤ 100 nM
//
COMPOUND: O=C(Cc1ccc(OCCCC2CCN(c3ncc(Cl)cn3)CC2)cc1F)N1CCC2(CC1)CN(C[C@H](O)[C@@H](O)[C@H](O)[C@H](O)CO)C2
MEASURED_ENDPOINT: EC50
RECORDED_VALUE: 100 to 1000 nM
//
COMPOUND: O=C(Cc1ccc(OCCCC2CCN(C(=O)OC3(C(F)(F)F)COC3)CC2)cc1F)N1CCN(C[C@H](O)[C@@H](O)[C@H](O)[C@H](O)CO)CC1
MEASURED_ENDPOINT: EC50
RECORDED_VALUE: 100 to 1000 nM
//
COMPOUND: O=C(Cc1ccc(OCCCC2CCN(c3ncc(Cl)cn3)CC2)cc1F)N1CCC2(CCCC2NC[C@H](O)[C@H](O)[C@H](O)CO)C1 (stereo partly drawn)
MEASURED_ENDPOINT: EC50
RECORDED_VALUE: ≤ 100 nM
//
COMPOUND: O=C(Cc1ccc(OCCCC2CCN(c3ncc(Cl)cn3)CC2)cc1F)N1C[C@@H]2C[C@H]1CN2C[C@H](O)[C@@H](O)[C@H](O)[C@H](O)CO
MEASURED_ENDPOINT: EC50
RECORDED_VALUE: ≤ 100 nM

Consider the additional compound presented here.
Dear colleague, I am looking for the recorded EC50 of the following compound: O=C(Cc1ccc(OCCCC2CCN(c3ncc(Cl)cn3)CC2)cc1F)N1CCOC2(CCN(C[C@H](O)[C@@H](O)[C@H](O)[C@H](O)CO)C2)C1 (stereo partly drawn)
≤ 100 nM

----------
We begin with a simple list: items and their reported Emax.
# ASSAY_SYSTEM: human GPR119 (hGPR119) (Homo sapiens, UniProt Q8TDV5)
# Construct: expressed in transfected cells
# Sequence (Q8TDV5 1-335): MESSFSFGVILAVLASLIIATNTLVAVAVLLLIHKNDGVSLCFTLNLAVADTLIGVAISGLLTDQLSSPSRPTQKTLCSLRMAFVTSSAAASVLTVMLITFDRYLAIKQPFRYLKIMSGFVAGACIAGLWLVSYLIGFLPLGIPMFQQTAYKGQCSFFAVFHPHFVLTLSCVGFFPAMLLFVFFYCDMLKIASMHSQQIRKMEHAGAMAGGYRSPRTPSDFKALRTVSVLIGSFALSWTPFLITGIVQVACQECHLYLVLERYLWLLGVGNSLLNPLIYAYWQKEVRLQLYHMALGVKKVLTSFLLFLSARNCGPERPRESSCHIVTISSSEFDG
# ASSAY_PROTOCOL: cAMP accumulation assay (Cisbio cAMP Gs dynamic HTRF kit) in CHO-K1 cells stably expressing human GPR119
# Type: cell-based
# EXPERIMENTAL_PARAMETERS: 1 h, % activity normalized to Max and Min controls, 4-parameter fit

COMPOUND: O=C(Cc1ccc(OCCCC2CCN(c3ncc(Cl)cn3)CC2)cc1F)N1CCCN(C[C@H](O)[C@@H](O)[C@H](O)[C@H](O)CO)CC1
RECORDED_VALUE: 100 to 130%

Dear colleague, I am looking for the recorded Emax of the following compound: "O=C(Cc1ccc(OCCCC2CCN(c3ncc(Cl)cn3)CC2)cc1F)N1CCC2(CC1)CN(C[C@H](O)[C@@H](O)[C@H](O)[C@H](O)CO)C2"
100 to 130%
